# target_or_system: human recombinant FAAH (Homo sapiens (Human), UniProt O00519)
# Sequence (O00519 whole entry): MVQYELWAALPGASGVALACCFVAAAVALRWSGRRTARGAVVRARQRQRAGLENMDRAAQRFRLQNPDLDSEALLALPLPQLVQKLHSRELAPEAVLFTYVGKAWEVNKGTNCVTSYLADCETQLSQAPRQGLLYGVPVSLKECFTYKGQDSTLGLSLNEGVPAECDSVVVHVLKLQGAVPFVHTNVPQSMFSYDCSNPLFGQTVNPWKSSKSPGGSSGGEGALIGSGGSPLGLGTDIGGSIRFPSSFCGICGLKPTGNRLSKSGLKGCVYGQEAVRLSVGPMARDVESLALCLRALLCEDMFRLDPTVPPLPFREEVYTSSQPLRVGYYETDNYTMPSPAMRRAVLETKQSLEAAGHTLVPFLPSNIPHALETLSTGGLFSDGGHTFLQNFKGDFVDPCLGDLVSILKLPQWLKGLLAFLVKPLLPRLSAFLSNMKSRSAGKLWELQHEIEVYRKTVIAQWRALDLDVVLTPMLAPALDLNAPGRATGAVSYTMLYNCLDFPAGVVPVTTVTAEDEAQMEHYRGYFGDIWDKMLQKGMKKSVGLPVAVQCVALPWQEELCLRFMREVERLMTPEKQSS
# assay_text: In vitro inhibition of FAAH activity (fluorescent inhibitor screening kit, AMC arachidonoyl amide)
# Format: biochemical
# condition_label: human recombinant FAAH; read-out: Inhibition on FAAH activity (IC50)
Can you tell me IC50 for the items I'm about to list?

Worked examples follow.
>>> result("COc1ccc(OC(=O)NCC2CCCCC2)cc1-c1cncc(-c2nnn[nH]2)c1")
"> 1000 nM"
>>> result("Cc1ccc(-c2cncc(-c3ncco3)c2)cc1OC(=O)NC1CCCCCCC1")
"> 1000 nM"
>>> result("COc1ccc(OC(=O)NCc2ccccc2)cc1-c1cncc(-c2nccs2)c1")
"~1000 nM"
>>> result("O=C(NC1CCCCCC1)Oc1cccc(-c2cncc(-c3nnn[nH]3)c2)c1")
"> 1000 nM"
>>> result("CCCCCCCCNC(=O)Oc1cc(O)cc(-c2cncc(-c3nnco3)c2)c1")
"1 to 10 nM"

For each of the compounds below, state IC50.
1. Cc1ccc(-c2cncc(-c3ncco3)c2)cc1OC(=O)NC1CCCCCC1
2. O=C(NC1CCCC1)Oc1cccc(-c2cncc(-c3cccs3)c2)c1
3. O=C(NC1CCCCC1)Oc1cc(O)cc(-c2cncc(-c3nnco3)c2)c1

Return:
> 1000 nM
10 to 100 nM
10 to 100 nM

For each of the compounds below, state IC50.
1. COc1ccc(OC(=O)NC2CCCCC2)cc1-c1cncc(-c2nncs2)c1
2. O=C(NCCCc1ccccc1)Oc1cccc(-c2cncc(-c3nnco3)c2)c1
3. O=C(NC1CCCCCC1)Oc1ccc(O)c(-c2cncc(-c3nnn[nH]3)c2)c1
4. O=C(Nc1cccc2ccccc12)Oc1cccc(-c2cncc(-c3nnco3)c2)c1

Return:
100 to 1000 nM
10 to 100 nM
> 1000 nM
> 100 nM

For each of the compounds below, state IC50.
1. O=C(NC1CCCCCC1)Oc1cc(O)cc(-c2cncc(-c3nnco3)c2)c1
2. CCCCCCCCNC(=O)Oc1cccc(-c2cncc(-c3ncn[nH]3)c2)c1
3. O=C(Oc1cccc(-c2cncc(-c3nnco3)c2)c1)N1CC2CCCC2C1 (stereo not drawn)
4. CCCCCCCCNC(=O)Oc1cc(-c2cncc(-c3ncco3)c2)ccc1C
5. O=C(NC1CCCCCC1)Oc1cccc(-c2cncc(-c3cccs3)c2)c1
6. Cc1ccc(-c2cncc(-c3ncco3)c2)cc1OC(=O)NC1CCCCC1

Return:
1: 25.8 nM; 2: 1 to 10 nM; 3: 10 to 100 nM; 4: 100 to 1000 nM; 5: 39.1 nM; 6: > 1000 nM

Data credit: patent US20250129027A1
